target: CYP3A4 (Homo sapiens (Human), UniProt P08684); experiment: Cytochrome P450 activity inhibition, CYP3A4; type: in vitro ADME; settings: 10 μM, human liver microsomes
Sequence (P08684 whole entry): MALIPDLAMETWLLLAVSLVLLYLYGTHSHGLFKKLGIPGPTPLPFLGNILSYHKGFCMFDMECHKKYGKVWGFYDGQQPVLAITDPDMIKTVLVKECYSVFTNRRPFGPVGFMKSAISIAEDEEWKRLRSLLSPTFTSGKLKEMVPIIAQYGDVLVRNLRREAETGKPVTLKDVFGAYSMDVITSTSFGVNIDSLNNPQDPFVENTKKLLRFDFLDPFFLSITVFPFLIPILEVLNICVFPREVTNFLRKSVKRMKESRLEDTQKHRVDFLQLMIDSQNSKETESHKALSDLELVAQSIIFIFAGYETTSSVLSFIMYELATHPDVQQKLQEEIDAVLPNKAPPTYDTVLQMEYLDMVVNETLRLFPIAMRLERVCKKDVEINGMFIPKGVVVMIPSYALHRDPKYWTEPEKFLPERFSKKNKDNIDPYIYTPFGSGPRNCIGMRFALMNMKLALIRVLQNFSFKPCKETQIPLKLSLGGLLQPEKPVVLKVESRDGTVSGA
Measured CYP inhibition (% of control) 3A4, listed per entry for reference.

Some solved entries appear below for comparison.
Compound	Meas Value
OCCC/C(=C(\c1ccc(O)cc1)c1ccc(N2CCN(C3CCC3)CC2)cc1)c1ccccc1 [Compound 22q]	81 % of control
OCCC/C(=C(\c1ccc(O)cc1)c1ccc(C2CCN(C3CCCCC3)CC2)cc1)c1ccccc1 [Compound 22p]	90.6 % of control
CN1CCC(c2ccc(/C(=C(/CCCO)c3ccccc3)c3cccc(O)c3)cc2)CC1 [Compound 22ac]	85 % of control

The reported CYP inhibition (% of control) 3A4 of the compound OCCC/C(=C(\c1ccc(O)cc1)c1ccc(C2CCNCC2)cc1)c1ccccc1 [Compound 20j] was 66.2 % of control

Entry OCCC/C(=C(\c1ccc(O)cc1)c1ccc(OCCN2CCOCC2)cc1)c1ccccc1 ; CYP inhibition (% of control) 3A4 = 81.3 % of control

Reported CYP inhibition (% of control) 3A4 for CN1CCN(c2ccc(/C(=C(/CCCO)c3ccccc3)c3ccc(Br)cc3)cc2)CC1 [Compound 18e] was 84 % of control

Looking up CN1CCCC1CCOc1ccc(/C(=C(/CCCO)c2ccccc2)c2ccc(Br)cc2)cc1 (centres unmarked) [Compound 13d] , I see its CYP inhibition (% of control) 3A4 listed as 90.2 % of control

According to the records, this compound CN1CCN(c2ccc(/C(=C(/CCCO)c3ccccc3)c3ccc(O)cc3)cc2)CC1 [Compound 18d] displays CYP inhibition (% of control) 3A4 of 64 % of control

These measurements were taken from patent US11285226B2.
